B1: CHMP4C (parent)
chain: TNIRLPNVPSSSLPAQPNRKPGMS

Variants of: B1
Experiment: protein stability index of a GFP-peptide fusion (GPS, HEK-293T) (PSI 1-6); higher = more stable;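 further: lentivirally expressed fusions sorted by FACS into six bins by GFP to DsRed ratio, PSI derived from sequencing read proportions per bin multiplied by bin number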
Condition set: c terminus: a fixed tail appended
Please provide measured protein stability index for the entries that follow.
Answer field: number only, no words.

[ask] Look at this variant and give its reported protein stability index. "P14N"
[reply] 4.41

[ask] Look at this variant and give its reported protein stability index. "R19G"
[reply] 4.49

[ask] Look at this variant and give its reported protein stability index. "S11H"
[reply] 4.6

[ask] Look at this variant and give its reported protein stability index. "L13D"
[reply] 4.4

[ask] Look at this variant and give its reported protein stability index. "S12N"
[reply] 4.68

[ask] Look at this variant and give its reported protein stability index. "M23H"
[reply] 4.92

[ask] Look at this variant and give its reported protein stability index. "R19A"
[reply] 4.61

[ask] Look at this variant and give its reported protein stability index. "P6C"
[reply] 3.56

[ask] Look at this variant and give its reported protein stability index. "P14Y"
[reply] 3.67

[ask] Look at this variant and give its reported protein stability index. "K20F"
[reply] 3.79

[ask] Look at this variant and give its reported protein stability index. "S11P"
[reply] 4.61

[ask] Look at this variant and give its reported protein stability index. "N7H"
[reply] 4.62

[ask] Look at this variant and give its reported protein stability index. "R4V"
[reply] 4.35

[ask] Look at this variant and give its reported protein stability index. "V8W"
[reply] 4.19

[ask] Look at this variant and give its reported protein stability index. "P6Q"
[reply] 3.19

[ask] Look at this variant and give its reported protein stability index. "N18D"
[reply] 4.51

[ask] Look at this variant and give its reported protein stability index. "I3V"
[reply] 4.54

[ask] Look at this variant and give its reported protein stability index. "P6E"
[reply] 4.48

[ask] Look at this variant and give its reported protein stability index. "L5P"
[reply] 4.88

[ask] Look at this variant and give its reported protein stability index. "N18A"
[reply] 4.45

[ask] Look at this variant and give its reported protein stability index. "S12I"
[reply] 4.56

[ask] Look at this variant and give its reported protein stability index. "R19W"
[reply] 3.6
